The values you see were collected from patent US10913710B2.

biological target: PDEδ (Homo sapiens (Human), UniProt O43924); experiment: Fluorescence polarization competition binding assay: displacement titration of labeled Atorvastatin probe for KD; settings: fluorescence polarization assay; activity classes; read-out: KD
pKd: −log10 of the molar value.
Below, each entry is listed with its recorded pKd.

# input compound: COc1ccc(CN(Cc2ccc(OC)c(OC)c2)S(=O)(=O)c2ccc(S(=O)(=O)N3CCCCC3)cc2)cc1 ; wanted: its pKd < 6.00

###

biological target: interaction between mCherry-PDE6δ and mCitrine-RheB (Homo sapiens (Human), UniProt O43924); experiment: FLIM-FRET of mCitrine-RheB and mCherry-PDE6δ interaction in living MDCK cells; conditions: fit of dose-response of interacting fraction α, ± s.e.m., read-out: apparent "in-cell" KD
Endpoint Label: pKd
When answering, recall that pKd equals minus log10 of the concentration in mol/L, and write that number alone.

# input compound: CNc1nccc(CN([C@H]2CC[C@H](N)CC2)S(=O)(=O)c2ccc(S(=O)(=O)N(Cc3ccc(Cl)cc3)C3CCCC3)cc2)n1 ; wanted: its pKd 7.21

###

test: in vitro; details: human, Caco-2, pH 6.5
Endpoint Label: Papp A→B at 2 h, 10 µM (×10⁻⁶ cm/s)

- Compound: "Nc1cc(CN(CC2CCNCC2)S(=O)(=O)c2ccc(S(=O)(=O)N(Cc3ccc(Cl)cc3)C3CCCC3)cc2)ccc1C(=O)O [Compound 22]"
  Value Units: "×10⁻⁶ cm/s"
  Papp A→B at 2 h, 10 µM: 0.9

P: CNc1cc(CN(CC2CCNCC2)S(=O)(=O)c2ccc(S(=O)(=O)N(Cc3ccc(Cl)cc3)C3CCCC3)cc2)ccc1C(=O)O [Compound 21]
Q: O=S(=O)(c1ccc(S(=O)(=O)N(Cc2ccc(Cl)cc2)C2CCCC2)cc1)N(Cc1ccccc1)CC1CCNCC1 [Compound 44]
R: CNc1nccc(CN([C@H]2CC[C@H](N)CC2)S(=O)(=O)c2ccc(S(=O)(=O)N(Cc3ccc(Cl)cc3)C3CCCC3)cc2)n1 [Compound 19]
S: CNc1nccc(CN(CC2CCNCC2)S(=O)(=O)c2ccc(S(=O)(=O)N(Cc3ccc(Cl)cc3)C3CCCC3)cc2)n1 [Compound 16]
Sort ascending by Papp A→B at 2 h, 10 µM. Arrange the labels as the request states and list them. P, Q, R, S

###

target: PDEδ (Homo sapiens (Human)); experiment: Fluorescence polarization competition binding assay: displacement titration of labeled Atorvastatin probe for KD; conditions: fluorescence polarization assay; activity classes; read-out: KD
Below, each entry is listed with its recorded Kd.

Example entries begin here.
- Compound: "O=S(=O)(c1ccc(S(=O)(=O)N(Cc2ccc(Cl)cc2)C2CCCC2)cc1)N(Cc1ccccc1Br)CC1CCCCC1 [Compound 34]"
  Measured Target: "PDEδ (Homo sapiens (Human))"
  Kd: "0.03 to 0.1 µM"
- Compound: "CC(C)c1ccc(CN(CC2CCCO2)S(=O)(=O)c2ccc(S(=O)(=O)NCc3ccccc3)cc2)cc1 (stereo not shown) [Compound 63]"
  Measured Target: "PDEδ (Homo sapiens (Human))"
  Kd: "0.001 to 0.03 µM"

# input compound: CCN(Cc1ccccc1)S(=O)(=O)c1ccc(S(=O)(=O)N(Cc2ccccc2)Cc2ccccc2F)cc1 [Compound 49] ; wanted: its Kd 0.001 to 0.03 µM

# input compound: O=S(=O)(c1ccc(S(=O)(=O)N(Cc2ccc(Cl)cc2)C2CCCC2)cc1)N(CCCCO)CC1CCCCC1 [Compound 33] ; wanted: its Kd 0.1 to 1 µM

# input compound: O=S(=O)(c1ccc(S(=O)(=O)N(Cc2ccc(Cl)cc2)Cc2ccco2)cc1)N1CCCCCC1 [Compound 52] ; wanted: its Kd 0.1 to 1 µM

# input compound: CNc1cc(CN(CC2CCNCC2)S(=O)(=O)c2ccc(S(=O)(=O)N(Cc3ccc(Cl)cc3)C3CCCC3)cc2)ccc1C(=O)O [Compound 21] ; wanted: its Kd 0.001 to 0.03 µM

# input compound: O=S(=O)(c1ccc(S(=O)(=O)N(Cc2ccc(Cl)cc2)C2CCCC2)cc1)N(CC1CCCCC1)c1ccccc1Br [Compound 36] ; wanted: its Kd 0.03 to 0.1 µM
